Just for reference, ChEMBL document CHEMBL6071142 is where these values come from.

- Tested on: HCT-116
- test protocol: Anticancer activity against human HCT-116 cells assessed as cell viability incubated for 72 hrs using self assembled nanoparticle as source of compound by CCK-8 assay
- Format: functional, cell-based
- settings: HCT-116, 72 h
pIC50: −log10 of the molar value.
parameter: pIC50

>  <structure>
C=C1C(=O)O[C@@H]2C[C@@]3(C)CC[C@@H](OC(=O)[C@H](C)NC(=O)c4ccc(/C=C/C(=O)NO)cc4)C(=C)[C@@H]3C[C@H]12

>  <readout value>
7.64

$$$$

====

- assay system: Histone deacetylase 1 (Homo sapiens)
- test protocol: Inhibition of recombinant human HDAC1 using Boc-Lys (acetyl)-AMC as substrate preincubated with compound for 1 hr followed by substrate addition and measured after 30 mins by microplate reader assay
pIC50: −log10 of the molar value.
Parameter pIC50: see the listing below.
parameter: pIC50

>  <structure>
C=C1C(=O)O[C@@H]2C[C@@]3(C)CC[C@@H](OC(=O)[C@H](C)NC(=O)c4ccc(C(=O)NO)cc4)C(=C)[C@@H]3C[C@H]12

>  <qualifier symbol>
=

>  <readout value>
6.25

$$$$
>  <structure>
C=C1C(=O)O[C@@H]2C[C@@]3(C)CC[C@@H](OC(=O)CNC(=O)c4ccc(C(=O)NO)cc4)C(=C)[C@@H]3C[C@H]12

>  <qualifier symbol>
=

>  <readout value>
6.70

$$$$
>  <structure>
C=C1C(=O)O[C@@H]2C[C@@]3(C)CC[C@@H](OC(=O)[C@H](Cc4ccccc4)NC(=O)c4ccc(C(=O)Nc5ccccc5N)cc4)C(=C)[C@@H]3C[C@H]12

>  <qualifier symbol>
<

>  <readout value>
6.00

$$$$
>  <structure>
C=C1C(=O)O[C@@H]2C[C@@]3(C)CC[C@@H](OC(=O)[C@H](C)NC(=O)c4cccc(/C=C/C(=O)NO)c4)C(=C)[C@@H]3C[C@H]12

>  <qualifier symbol>
=

>  <readout value>
6.69

$$$$
>  <structure>
C=C1C(=O)O[C@@H]2C[C@@]3(C)CC[C@@H](OC(=O)[C@@H](Cc4ccccc4)NC(=O)c4ccc(C(=O)Nc5ccccc5N)cc4)C(=C)[C@@H]3C[C@H]12

>  <qualifier symbol>
=

>  <readout value>
6.21

$$$$
>  <structure>
C=C1C(=O)O[C@@H]2C[C@@]3(C)CC[C@@H](OC(=O)CNC(=O)c4cccc(/C=C/C(=O)NO)c4)C(=C)[C@@H]3C[C@H]12

>  <qualifier symbol>
=

>  <readout value>
7.06

$$$$
>  <structure>
C=C1C(=O)O[C@@H]2C[C@@]3(C)CC[C@@H](OC(=O)[C@H](CC)NC(=O)c4ccc(C(=O)Nc5ccccc5N)cc4)C(=C)[C@@H]3C[C@H]12

>  <qualifier symbol>
<

>  <readout value>
6.00

$$$$
>  <structure>
C=C1C(=O)O[C@@H]2C[C@@]3(C)CC[C@@H](OC(=O)[C@H](CC(C)C)NC(=O)c4ccc(C(=O)Nc5ccccc5N)cc4)C(=C)[C@@H]3C[C@H]12

>  <qualifier symbol>
<

>  <readout value>
6.00

$$$$
>  <structure>
C=C1C(=O)O[C@@H]2C[C@@]3(C)CC[C@@H](OC(=O)[C@H](C)NC(=O)c4ccc(C(=O)Nc5ccccc5N)cc4)C(=C)[C@@H]3C[C@H]12

>  <qualifier symbol>
<

>  <readout value>
6.00

$$$$
>  <structure>
C=C1C(=O)O[C@@H]2C[C@@]3(C)CC[C@@H](OC(=O)[C@@H](CC(C)C)NC(=O)c4ccc(C(=O)Nc5ccccc5N)cc4)C(=C)[C@@H]3C[C@H]12

>  <qualifier symbol>
=

>  <readout value>
6.34

$$$$
>  <structure>
C=C1C(=O)O[C@@H]2C[C@@]3(C)CC[C@@H](OC(=O)[C@@H](CC)NC(=O)c4ccc(C(=O)Nc5ccccc5N)cc4)C(=C)[C@@H]3C[C@H]12

>  <qualifier symbol>
=

>  <readout value>
5.19

$$$$

====

- assay system: Histone deacetylase 4 (Homo sapiens, UniProt P56524)
- Sequence (P56524 whole entry): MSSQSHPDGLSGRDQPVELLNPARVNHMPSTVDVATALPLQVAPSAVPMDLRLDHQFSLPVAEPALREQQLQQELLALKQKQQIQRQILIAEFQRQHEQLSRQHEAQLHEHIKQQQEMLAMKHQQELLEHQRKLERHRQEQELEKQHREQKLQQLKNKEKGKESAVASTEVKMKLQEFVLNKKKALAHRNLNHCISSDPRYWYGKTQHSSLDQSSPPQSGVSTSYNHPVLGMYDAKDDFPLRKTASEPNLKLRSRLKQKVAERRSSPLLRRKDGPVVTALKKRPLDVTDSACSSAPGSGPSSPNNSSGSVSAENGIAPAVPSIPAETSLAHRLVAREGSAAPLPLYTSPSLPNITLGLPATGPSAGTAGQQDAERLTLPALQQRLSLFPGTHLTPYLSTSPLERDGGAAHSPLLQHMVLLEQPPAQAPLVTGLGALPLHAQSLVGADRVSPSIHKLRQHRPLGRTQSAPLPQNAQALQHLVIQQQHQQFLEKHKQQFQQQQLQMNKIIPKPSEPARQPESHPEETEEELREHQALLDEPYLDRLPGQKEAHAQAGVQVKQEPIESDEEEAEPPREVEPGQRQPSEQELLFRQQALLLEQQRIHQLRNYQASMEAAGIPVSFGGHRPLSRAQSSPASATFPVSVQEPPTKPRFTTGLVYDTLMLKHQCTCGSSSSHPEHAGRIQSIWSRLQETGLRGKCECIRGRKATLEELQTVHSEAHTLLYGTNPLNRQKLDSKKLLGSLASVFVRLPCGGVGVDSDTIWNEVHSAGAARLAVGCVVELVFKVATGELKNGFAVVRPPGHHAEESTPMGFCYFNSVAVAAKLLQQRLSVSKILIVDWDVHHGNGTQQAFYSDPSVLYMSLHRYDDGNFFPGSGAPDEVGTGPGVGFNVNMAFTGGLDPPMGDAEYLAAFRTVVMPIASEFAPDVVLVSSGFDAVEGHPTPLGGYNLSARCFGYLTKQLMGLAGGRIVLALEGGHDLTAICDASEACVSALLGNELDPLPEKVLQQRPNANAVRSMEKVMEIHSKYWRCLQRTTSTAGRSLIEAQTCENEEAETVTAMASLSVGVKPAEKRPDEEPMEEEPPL
- test protocol: Inhibition of recombinant human HDAC4 using Boc-Lys (trifluroacetyl)-AMC as substrate preincubated with compound for 1 hr followed by substrate addition and measured after 30 mins by microplate reader assay
parameter: IC50

>  <structure>
C=C1C(=O)O[C@@H]2C[C@@]3(C)CC[C@@H](OC(=O)[C@H](C)NC(=O)c4ccc(/C=C/C(=O)NO)cc4)C(=C)[C@@H]3C[C@H]12

>  <parameter>
IC50

>  <readout value>
> 10 µM

$$$$

====

- assay system: Protein deacetylase HDAC6 (Homo sapiens)
- Sequence (Q9UBN7 whole entry): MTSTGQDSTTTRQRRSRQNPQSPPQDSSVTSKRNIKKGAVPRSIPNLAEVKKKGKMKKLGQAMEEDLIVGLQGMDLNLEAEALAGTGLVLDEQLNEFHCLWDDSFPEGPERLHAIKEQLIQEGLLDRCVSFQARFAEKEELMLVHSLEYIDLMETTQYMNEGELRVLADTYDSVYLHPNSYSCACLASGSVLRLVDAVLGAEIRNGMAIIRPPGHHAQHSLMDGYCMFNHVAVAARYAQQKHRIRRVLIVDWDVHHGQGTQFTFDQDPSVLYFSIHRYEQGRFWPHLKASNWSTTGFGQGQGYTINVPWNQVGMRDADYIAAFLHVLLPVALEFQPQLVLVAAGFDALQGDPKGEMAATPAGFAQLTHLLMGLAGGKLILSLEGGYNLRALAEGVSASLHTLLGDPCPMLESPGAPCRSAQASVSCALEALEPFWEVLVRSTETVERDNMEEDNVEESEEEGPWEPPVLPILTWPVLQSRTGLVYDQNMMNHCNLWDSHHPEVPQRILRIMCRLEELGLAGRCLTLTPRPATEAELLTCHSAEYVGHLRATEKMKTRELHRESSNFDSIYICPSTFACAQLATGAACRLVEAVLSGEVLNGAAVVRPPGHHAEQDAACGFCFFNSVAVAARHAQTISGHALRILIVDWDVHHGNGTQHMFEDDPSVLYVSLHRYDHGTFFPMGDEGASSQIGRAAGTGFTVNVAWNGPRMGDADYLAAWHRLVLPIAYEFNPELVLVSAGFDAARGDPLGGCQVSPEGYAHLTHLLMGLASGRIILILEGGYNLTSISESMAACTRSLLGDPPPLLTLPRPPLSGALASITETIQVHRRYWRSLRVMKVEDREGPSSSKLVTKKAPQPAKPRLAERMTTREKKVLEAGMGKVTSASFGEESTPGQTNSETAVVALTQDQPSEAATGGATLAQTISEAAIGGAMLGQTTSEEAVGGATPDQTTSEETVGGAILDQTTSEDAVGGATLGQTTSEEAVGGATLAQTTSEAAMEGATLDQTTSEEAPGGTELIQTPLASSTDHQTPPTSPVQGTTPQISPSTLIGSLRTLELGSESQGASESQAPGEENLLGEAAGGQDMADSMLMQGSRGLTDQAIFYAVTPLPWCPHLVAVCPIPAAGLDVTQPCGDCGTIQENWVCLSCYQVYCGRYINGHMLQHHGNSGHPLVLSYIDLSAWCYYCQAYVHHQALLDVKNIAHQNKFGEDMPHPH
- test protocol: Inhibition of recombinant human HDAC6 using Boc-Lys (acetyl)-AMC as substrate preincubated with compound for 1 hr followed by substrate addition and measured after 30 mins by microplate reader assay
pIC50: −log10 of the molar value.

>  <compound>
C=C1C(=O)O[C@@H]2C[C@@]3(C)CC[C@@H](OC(=O)[C@H](CC(C)C)NC(=O)c4ccc(C(=O)Nc5ccccc5N)cc4)C(=C)[C@@H]3C[C@H]12

>  <pIC50>
< 6.00

$$$$
>  <compound>
C=C1C(=O)O[C@@H]2C[C@@]3(C)CCCC(=C)[C@@H]3C[C@H]12 [ISOALANTOLACTONE]

>  <pIC50>
< 6.00

$$$$
>  <compound>
C=C1C(=O)O[C@@H]2C[C@@]3(C)CC[C@@H](OC(=O)[C@H](C)NC(=O)c4cccc(/C=C/C(=O)NO)c4)C(=C)[C@@H]3C[C@H]12

>  <pIC50>
7.20

$$$$
>  <compound>
C=C1C(=O)O[C@@H]2C[C@@]3(C)CC[C@@H](OC(=O)CNC(=O)c4ccc(C(=O)Nc5ccccc5N)cc4)C(=C)[C@@H]3C[C@H]12

>  <pIC50>
< 6.00

$$$$
>  <compound>
C=C1C(=O)O[C@@H]2C[C@@]3(C)CC[C@@H](OC(=O)[C@@H](NC(=O)c4ccc(C(=O)Nc5ccccc5N)cc4)C(C)C)C(=C)[C@@H]3C[C@H]12

>  <pIC50>
< 6.00

$$$$
>  <compound>
C=C1C(=O)O[C@@H]2C[C@@]3(C)CC[C@@H](OC(=O)[C@H](CC)NC(=O)c4ccc(C(=O)Nc5ccccc5N)cc4)C(=C)[C@@H]3C[C@H]12

>  <pIC50>
< 6.00

$$$$

====

# maps each entry to its pIC50
- assay system: Histone deacetylase 1 (Homo sapiens, UniProt Q13547)
- Sequence (Q13547 whole entry): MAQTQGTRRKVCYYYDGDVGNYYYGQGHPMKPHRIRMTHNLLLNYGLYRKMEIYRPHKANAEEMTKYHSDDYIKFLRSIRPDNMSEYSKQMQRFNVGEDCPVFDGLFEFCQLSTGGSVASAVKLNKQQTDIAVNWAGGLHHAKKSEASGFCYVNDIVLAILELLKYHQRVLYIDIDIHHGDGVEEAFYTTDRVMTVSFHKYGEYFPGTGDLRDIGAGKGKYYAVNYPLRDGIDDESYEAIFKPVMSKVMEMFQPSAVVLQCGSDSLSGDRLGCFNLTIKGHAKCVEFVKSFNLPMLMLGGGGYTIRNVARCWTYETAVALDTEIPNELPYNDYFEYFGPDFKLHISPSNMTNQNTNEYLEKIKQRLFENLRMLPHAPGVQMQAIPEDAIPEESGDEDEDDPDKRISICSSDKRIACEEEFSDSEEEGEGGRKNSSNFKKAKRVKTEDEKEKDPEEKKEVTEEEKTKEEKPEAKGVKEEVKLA
- test protocol: Inhibition of recombinant human HDAC1 using Boc-Lys (acetyl)-AMC as substrate preincubated with compound for 1 hr followed by substrate addition and measured after 30 mins by microplate reader assay
pIC50: −log10 of the molar value.

>  <compound>
C=C1C(=O)O[C@@H]2C[C@@]3(C)CCCC(=C)[C@@H]3C[C@H]12 [ISOALANTOLACTONE]

>  <qualifier symbol>
<

>  <pIC50>
6.00

$$$$
>  <compound>
C=C1C(=O)O[C@@H]2C[C@@]3(C)CC[C@@H](OC(=O)[C@@H](C)NC(=O)c4ccc(/C=C/C(=O)NO)cc4)C(=C)[C@@H]3C[C@H]12

>  <qualifier symbol>
=

>  <pIC50>
6.71

$$$$
>  <compound>
C=C1C(=O)O[C@@H]2C[C@@]3(C)CC[C@@H](OC(=O)[C@@H](C)NC(=O)c4cccc(/C=C/C(=O)NO)c4)C(=C)[C@@H]3C[C@H]12

>  <qualifier symbol>
=

>  <pIC50>
6.70

$$$$
>  <compound>
C=C1C(=O)O[C@@H]2C[C@@]3(C)CC[C@@H](OC(=O)[C@@H](NC(=O)c4ccc(C(=O)Nc5ccccc5N)cc4)C(C)C)C(=C)[C@@H]3C[C@H]12

>  <qualifier symbol>
<

>  <pIC50>
6.00

$$$$
>  <compound>
C=C1C(=O)O[C@@H]2C[C@@]3(C)CC[C@@H](OC(=O)[C@@H](C)NC(=O)c4ccc(C(=O)Nc5ccccc5N)cc4)C(=C)[C@@H]3C[C@H]12

>  <qualifier symbol>
=

>  <pIC50>
6.91

$$$$
>  <compound>
C=C1C(=O)O[C@@H]2C[C@@]3(C)CC[C@@H](OC(=O)[C@@H](C)NC(=O)c4ccc(C(=O)NO)cc4)C(=C)[C@@H]3C[C@H]12

>  <qualifier symbol>
=

>  <pIC50>
6.13

$$$$

====

- assay system: Histone deacetylase 5 (Homo sapiens, UniProt Q9UQL6)
- Sequence (Q9UQL6 whole entry): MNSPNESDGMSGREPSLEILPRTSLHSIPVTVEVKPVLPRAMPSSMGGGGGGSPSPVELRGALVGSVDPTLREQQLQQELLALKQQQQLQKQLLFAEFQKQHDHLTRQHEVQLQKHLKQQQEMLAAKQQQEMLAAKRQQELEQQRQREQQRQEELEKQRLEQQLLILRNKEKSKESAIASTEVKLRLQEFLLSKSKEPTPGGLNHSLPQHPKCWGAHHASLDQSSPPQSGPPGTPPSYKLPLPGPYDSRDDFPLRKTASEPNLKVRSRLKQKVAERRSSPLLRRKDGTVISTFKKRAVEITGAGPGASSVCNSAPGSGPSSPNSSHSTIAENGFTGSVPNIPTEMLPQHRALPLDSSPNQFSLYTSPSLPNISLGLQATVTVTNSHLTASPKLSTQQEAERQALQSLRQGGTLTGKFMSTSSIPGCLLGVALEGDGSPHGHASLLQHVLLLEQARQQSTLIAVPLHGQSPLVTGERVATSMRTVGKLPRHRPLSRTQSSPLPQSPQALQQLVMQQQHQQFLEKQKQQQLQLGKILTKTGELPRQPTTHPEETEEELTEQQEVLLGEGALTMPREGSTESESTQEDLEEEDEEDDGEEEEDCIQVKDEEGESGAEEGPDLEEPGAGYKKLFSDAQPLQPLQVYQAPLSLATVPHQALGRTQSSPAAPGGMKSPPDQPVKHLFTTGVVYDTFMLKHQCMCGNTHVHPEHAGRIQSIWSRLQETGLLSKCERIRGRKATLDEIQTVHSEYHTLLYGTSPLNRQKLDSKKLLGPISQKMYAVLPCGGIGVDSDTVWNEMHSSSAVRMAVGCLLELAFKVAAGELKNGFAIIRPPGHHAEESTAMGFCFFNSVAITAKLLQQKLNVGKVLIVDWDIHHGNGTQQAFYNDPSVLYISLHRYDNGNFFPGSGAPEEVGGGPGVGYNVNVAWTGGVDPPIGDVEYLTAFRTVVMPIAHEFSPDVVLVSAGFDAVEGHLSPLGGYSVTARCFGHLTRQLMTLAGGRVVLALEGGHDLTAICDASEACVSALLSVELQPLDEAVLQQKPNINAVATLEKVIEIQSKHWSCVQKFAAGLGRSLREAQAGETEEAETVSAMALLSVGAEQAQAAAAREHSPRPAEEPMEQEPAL
- test protocol: Inhibition of recombinant human HDAC5 using Boc-Lys (trifluroacetyl)-AMC as substrate preincubated with compound for 1 hr followed by substrate addition and measured after 30 mins by microplate reader assay
parameter: IC50

>  <structure>
C=C1C(=O)O[C@@H]2C[C@@]3(C)CC[C@@H](OC(=O)[C@H](C)NC(=O)c4ccc(/C=C/C(=O)NO)cc4)C(=C)[C@@H]3C[C@H]12

>  <readout value>
> 10 µM

$$$$
